# System Under Test: BRAF V600E (Homo sapiens, UniProt P15056, V600E)
# Construct: endogenous C-terminal HiBiT fusion tag on BRAF V600E allele; endogenous in cells; host or cells: A375 clone 1F10 (CRISPR-Cas9 knock-in of the HiBiT tag; parental A375 from ATCC)
# Sequence (P15056 whole entry V600E, the tested form may be a part): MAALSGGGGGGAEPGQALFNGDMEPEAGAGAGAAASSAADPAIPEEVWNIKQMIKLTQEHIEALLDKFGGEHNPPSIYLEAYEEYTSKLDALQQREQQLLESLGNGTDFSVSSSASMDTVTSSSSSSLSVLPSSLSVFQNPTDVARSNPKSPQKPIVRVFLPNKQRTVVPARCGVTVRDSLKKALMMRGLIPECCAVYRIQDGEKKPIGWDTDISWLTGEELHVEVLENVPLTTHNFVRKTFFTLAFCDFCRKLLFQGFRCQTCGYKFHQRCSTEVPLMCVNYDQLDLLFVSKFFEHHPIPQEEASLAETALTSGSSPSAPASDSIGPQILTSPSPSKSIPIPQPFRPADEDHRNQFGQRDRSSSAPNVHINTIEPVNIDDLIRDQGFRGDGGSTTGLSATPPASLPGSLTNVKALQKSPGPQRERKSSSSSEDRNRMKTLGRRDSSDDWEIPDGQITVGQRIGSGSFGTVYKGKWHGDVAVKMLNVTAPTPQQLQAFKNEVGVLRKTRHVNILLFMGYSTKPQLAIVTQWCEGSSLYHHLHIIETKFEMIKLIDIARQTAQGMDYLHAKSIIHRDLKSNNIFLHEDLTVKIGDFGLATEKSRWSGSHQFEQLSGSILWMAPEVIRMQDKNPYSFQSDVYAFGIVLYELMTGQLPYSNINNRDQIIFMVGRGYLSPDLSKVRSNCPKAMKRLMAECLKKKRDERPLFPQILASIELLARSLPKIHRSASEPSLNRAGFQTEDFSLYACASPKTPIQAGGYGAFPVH
# Protocol Text: BRAF HiBiT degradation assay, C-terminal HiBiT-tagged BRAF V600E A375 cells (clone 1F10), Nano-Glo HiBiT Lytic assay
# Assay type: cell-based
# Settings: A375 (BRAF V600E); DC50 at 50%: fitted conc. at Y=50
# reported DC50; entries follow

Compound	Result
CCCS(=O)(=O)Nc1cccc(-c2nc(C(C)(C)C)sc2-c2ccnc(Nc3cnn(C4CCN(CC5CCN(c6ccc7c(=O)n(C8CCC(=O)NC8=O)ccc7c6)CC5)CC4)c3)n2)c1F (racemic)	< 10 nM
CCN(C)S(=O)(=O)Nc1cccc(-c2nc(C)sc2-c2ccnc(Nc3ccc(N4CCN(C(=O)C5CCN(c6ccc(C7CCC(=O)NC7=O)cn6)CC5)CC4)cn3)n2)c1F (racemic)	< 10 nM

Problem: Which DC50 is listed for CCCS(=O)(=O)Nc1cccc(-c2nc(C3CCN(C(=O)C4CCN(C(=O)CC5CCN(c6ccc(NC7CCC(=O)NC7=O)cc6)CC5)CC4)CC3)sc2-c2ccncn2)c1F (racemic) ?
Solution: < 10 nM

Problem: Which DC50 is listed for CCN(C)S(=O)(=O)Nc1cccc(-c2nc(C)sc2-c2ccnc(Nc3ccc(N4CCN(CC5(F)CCN(c6ccc(C7CCC(=O)NC7=O)cc6)CC5)CC4)cn3)n2)c1F (racemic) ?
Solution: 10 to 50 nM

Problem: Which DC50 is listed for CCCS(=O)(=O)Nc1cccc(-c2nc(C(C)(C)C)sc2-c2ccnc(Nc3ccc(N4CCN(C(=O)[C@@H]5CCN(c6ccc([C@H]7CCC(=O)NC7=O)cn6)C5)CC4)c(F)c3)n2)c1F (racemic) ?
Solution: < 10 nM

Problem: Which DC50 is listed for CCCS(=O)(=O)Nc1cccc(-c2nc(C(C)(C)C)sc2-c2ccnc(Nc3ccc(N4CCN(CC5CCN(c6ccc([C@@H]7CCC(=O)NC7=O)cc6)CC5)CC4)c(F)c3)n2)c1F ?
Solution: 10 to 50 nM
